Tgt: Voltage-gated inwardly rectifying potassium channel KCNH2 (Homo sapiens, UniProt Q12809)
Sequence (Q12809 whole entry): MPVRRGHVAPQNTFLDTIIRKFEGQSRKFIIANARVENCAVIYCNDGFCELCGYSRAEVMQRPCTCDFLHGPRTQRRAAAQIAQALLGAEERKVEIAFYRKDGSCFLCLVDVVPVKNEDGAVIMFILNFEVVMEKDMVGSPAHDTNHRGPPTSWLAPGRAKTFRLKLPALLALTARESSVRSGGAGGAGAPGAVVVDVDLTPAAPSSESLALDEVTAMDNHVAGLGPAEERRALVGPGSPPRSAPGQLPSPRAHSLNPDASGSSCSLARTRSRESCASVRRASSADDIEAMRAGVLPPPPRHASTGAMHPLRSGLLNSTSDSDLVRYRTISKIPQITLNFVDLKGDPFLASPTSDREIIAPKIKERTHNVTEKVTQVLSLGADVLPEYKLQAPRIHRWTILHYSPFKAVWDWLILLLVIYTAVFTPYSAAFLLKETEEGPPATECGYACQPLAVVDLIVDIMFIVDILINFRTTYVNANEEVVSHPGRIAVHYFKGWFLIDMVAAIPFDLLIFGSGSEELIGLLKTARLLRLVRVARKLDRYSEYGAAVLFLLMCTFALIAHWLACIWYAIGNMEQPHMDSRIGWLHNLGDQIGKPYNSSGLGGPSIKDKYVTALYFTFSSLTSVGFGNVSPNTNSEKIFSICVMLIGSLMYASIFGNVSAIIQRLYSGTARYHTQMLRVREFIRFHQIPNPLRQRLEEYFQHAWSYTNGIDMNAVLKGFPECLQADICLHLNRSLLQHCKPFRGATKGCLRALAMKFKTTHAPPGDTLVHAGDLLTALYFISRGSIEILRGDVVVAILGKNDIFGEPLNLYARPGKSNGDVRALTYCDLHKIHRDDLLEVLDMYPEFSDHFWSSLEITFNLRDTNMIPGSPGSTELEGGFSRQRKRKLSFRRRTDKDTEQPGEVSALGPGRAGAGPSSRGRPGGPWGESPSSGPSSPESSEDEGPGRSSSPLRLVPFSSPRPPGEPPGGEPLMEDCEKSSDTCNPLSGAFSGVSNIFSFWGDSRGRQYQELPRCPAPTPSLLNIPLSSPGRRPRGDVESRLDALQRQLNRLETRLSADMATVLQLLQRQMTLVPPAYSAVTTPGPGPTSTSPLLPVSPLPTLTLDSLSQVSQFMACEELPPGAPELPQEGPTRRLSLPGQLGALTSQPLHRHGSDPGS
Test Protocol: Inhibition of hERG potassium channel assessed as […] at -80 mV holding potential incubated for 120 seconds by whole cell-automated voltage clamp analysis assay
Quick list: IC50 per entry.

{"columns": ["Compound", "Tgt", "IC50"],
 "data": [
  ["CNc1cc(F)cc2c1[nH]c1nc(Oc3cnc(C)nc3)nc(N3CC(=CC(C)N)C3)c12 (configuration not stated)", "Voltage-gated inwardly rectifying potassium channel KCNH2 (Homo sapiens, UniProt Q12809)", "> 40 µM"],
  ["CNc1cc(F)cc2c1[nH]c1nc(Oc3cnc(C)nc3)nc(N3CCC(=C(F)CN)CC3)c12", "Voltage-gated inwardly rectifying potassium channel KCNH2 (Homo sapiens, UniProt Q12809)", "18.4 µM"],
  ["CNc1cc(F)cc2c1[nH]c1nc(Oc3cnc(C)nc3)nc(N3CC4CCNC4C3)c12 (racemic)", "Voltage-gated inwardly rectifying potassium channel KCNH2 (Homo sapiens, UniProt Q12809)", "12.3 µM"],
  ["CNc1cc(F)cc2c1[nH]c1nc(Oc3cnc(C)nc3)nc(N3CC(=C(F)CN)C3)c12", "Voltage-gated inwardly rectifying potassium channel KCNH2 (Homo sapiens, UniProt Q12809)", "> 40 µM"],
  ["CNc1cc(F)cc2c1[nH]c1nc(Oc3cnc(C)nc3)nc(N3CC(=C(Cl)CN)C3)c12", "Voltage-gated inwardly rectifying potassium channel KCNH2 (Homo sapiens, UniProt Q12809)", "> 40 µM"],
  ["C=CCC(CN)=C1CN(c2nc(Oc3cnc(C)nc3)nc3[nH]c4c(NC)cc(F)cc4c23)C1", "Voltage-gated inwardly rectifying potassium channel KCNH2 (Homo sapiens, UniProt Q12809)", "> 40 µM"],
  ["CNc1cc(F)cc2c1[nH]c1nc(Oc3cnc(C)nc3)nc(N3CC(=C(C)C(C)N)C3)c12 (racemic)", "Voltage-gated inwardly rectifying potassium channel KCNH2 (Homo sapiens, UniProt Q12809)", "> 40 µM"],
  ["CCC(CN)=C1CN(c2nc(Oc3cnc(C4CC4)nc3)nc3[nH]c4c(NC)cc(F)cc4c23)C1", "Voltage-gated inwardly rectifying potassium channel KCNH2 (Homo sapiens, UniProt Q12809)", "23.4 µM"],
  ["CNc1cc(F)cc2c1[nH]c1nc(Oc3cnc(C)nc3)nc(N3CC(=C(C)[C@@H](C)N)C3)c12", "Voltage-gated inwardly rectifying potassium channel KCNH2 (Homo sapiens, UniProt Q12809)", "> 40 µM"],
  ["CNc1cc(F)cc2c1[nH]c1nc(Oc3cnc(C)nc3)nc(N3CC(=C(C)CN)C3)c12", "Voltage-gated inwardly rectifying potassium channel KCNH2 (Homo sapiens, UniProt Q12809)", "> 40 µM"],
  ["CNc1cc(F)cc2c1[nH]c1nc(Oc3cnc(C)nc3)nc(N3CC(=C(CN)C(C)C)C3)c12", "Voltage-gated inwardly rectifying potassium channel KCNH2 (Homo sapiens, UniProt Q12809)", "> 40 µM"],
  ["CCC(CN)=C1CN(c2nc(Oc3cnc(C(C)O)nc3)nc3[nH]c4c(NC)cc(F)cc4c23)C1 (configuration not stated)", "Voltage-gated inwardly rectifying potassium channel KCNH2 (Homo sapiens, UniProt Q12809)", "> 40 µM"],
  ["[2H]C([2H])([2H])Nc1cc(F)cc2c1[nH]c1nc(Oc3cnc(C)nc3)nc(N3CC(=C(C)C(C)N)C3)c12 (configuration not stated)", "Voltage-gated inwardly rectifying potassium channel KCNH2 (Homo sapiens, UniProt Q12809)", "> 40 µM"],
  ["CCC(CN)=C1CN(c2nc(Oc3cnc(C)nc3)nc3[nH]c4c(NC)cc(F)cc4c23)C1", "Voltage-gated inwardly rectifying potassium channel KCNH2 (Homo sapiens, UniProt Q12809)", "> 40 µM"],
  ["CNc1cc(F)cc2c1[nH]c1nc(Oc3cnc(C)nc3)nc(N3CC/C(=C(\\F)CN)C3)c12", "Voltage-gated inwardly rectifying potassium channel KCNH2 (Homo sapiens, UniProt Q12809)", "> 40 µM"],
  ["CCCC(CN)=C1CN(c2nc(Oc3cnc(C)nc3)nc3[nH]c4c(NC)cc(F)cc4c23)C1", "Voltage-gated inwardly rectifying potassium channel KCNH2 (Homo sapiens, UniProt Q12809)", "51.5 µM"],
  ["CCC(CN)=C1CN(c2nc(Oc3cnc(CO)nc3)nc3[nH]c4c(NC)cc(F)cc4c23)C1", "Voltage-gated inwardly rectifying potassium channel KCNH2 (Homo sapiens, UniProt Q12809)", "> 40 µM"]
]}

Hey, just so you know, these numbers are from ChEMBL document CHEMBL5096186.
